Test system: DU-145 prostate
Assay: NCI tumour cell line growth inhibition, 48 h
measurementType: GI50

# smilesEntry, measurementType, result
records = [
    ("NC(=O)c1cccc(N2Cc3ccccc3OC3=C2C(=O)c2c(O)ccc(O)c2C3=O)c1", "GI50", "517 nM"),
    ("CC1(C)C(=O)/C(=C\\c2ccccn2)C[C@]2(C)[C@H]3CC[C@@H]4[C@@H](C(=O)/C=C/c5ccccn5)CC[C@@]4(C)[C@]3(C)CC[C@@H]12", "GI50", "1760 nM"),
    ("CCOC(=O)/C=C/C1=C(c2csc3ccccc23)c2ccccc2CC1", "GI50", "54900 nM"),
    ("COc1cc(O)c2c(=O)c(OC)c(-c3ccc(OC)c(OC)c3)oc2c1.[Co]", "GI50", "> 100000 nM"),
]
